System: MDA-MB-231
assayDetails: NCI tumour cell line growth inhibition, 48 h
Activity calls are given as the source filed them. No stated cut-off is given here; in the data, active = GI50 up to about 1.1 µM and inactive = higher.
Output constraint: value belongs to yes for active, no for inactive

# example entries with known answers
| compound | testSystem | assignedCategory |
| --- | --- | --- |
| O=C(CCN1CCCCC1)Nc1ccc2sc3ccccc3c(=O)c2n1 | MDA-MB-231 | no |
| CC(=N)OC1CC2CCC1(C)C2(C)C (stereo unspecified) | MDA-MB-231 | no |
| COC1=CC(=O)c2c(c(COP(=O)(N(C)CCBr)N(C)CCBr)cn2C)C1=O | MDA-MB-231 | yes |
| CCN1C(NN)=NS(=O)(=O)c2ccccc21 | MDA-MB-231 | no |
| COc1ccc(Nc2nc3ccccc3nc2-c2cccs2)cc1OC | MDA-MB-231 | no |
| Cc1nn(C(=O)c2ccc(Cl)cc2)c2c1C(/C=C/c1ccccc1)SC(=N)N2 (stereo unspecified) | MDA-MB-231 | no |
| Fc1cccc(F)c1C1SCC2=Nc3ccccc3CN21 (stereo unspecified) | MDA-MB-231 | no |
| COC(=O)C[C@H](CCSC)NC(=O)C[C@H](CCSC)NC(=O)C[C@H](CCSC)NC(=O)OC(C)(C)C | MDA-MB-231 | no |

Identify the outcome logged in this assay for the compound shown: Cc1cc(Cl)cc2c1NC(=O)C2(O)CC(=O)c1ccco1 (stereo unspecified)
no

Identify the outcome logged in this assay for the compound shown: Cc1c(O)oc2ccccc2c1=O
no

Identify the outcome logged in this assay for the compound shown: COC(=O)c1c(C)nc(C)c(N=O)c1-c1ccccc1C(F)(F)F
no

====

System: SNB-19
assayDetails: NCI tumour cell line growth inhibition, 48 h
Activity calls are given as the source filed them. Cut-off read from the data, not from the text of the source: active = GI50 up to about 1.1 µM and inactive = higher.
endpointName: GI50

As a guide, the following entries are already answered.
| molecule | GI50 |
| --- | --- |
| CN(C)CCNc1ccc2ncn3c4ccccc4c(=O)c1c23 | 7.96 µM (inactive) |
| CN1C(=O)CNS1(=O)=O | > 100 µM (inactive) |
| C=CC[C@H](N=C(SC)SC)C(=O)N1C(=O)N(C)[C@@H](C)[C@H]1c1ccccc1 | 58.7 µM (inactive) |
| c1ccc(-n2nc3ccc4nonc4c3n2)cc1 | 45.9 µM (inactive) |
| CC12CCC(C(Nc3ccccn3)C1=O)C2(C)C (stereo unspecified) | > 100 µM (inactive) |

For the next question, use this molecule.
What value of measured GI50 is listed for CCN1C(NN)=NS(=O)(=O)c2ccccc21 ?
> 100 µM (inactive)

====

Test system: HCC 2998
assayDetails: NCI tumour cell line growth inhibition, 48 h
Counter-ions that a name gives are not always drawn. Activity calls are given as the source filed them. Cut-off read from the data, not from the text of the source: active = GI50 up to about 1.1 µM and inactive = higher.
Output constraint: value belongs to True for active, False for inactive

# example entries with known answers
| compound | assignedCategory |
| --- | --- |
| C=C(Br)CNCC(=C)Br | False |
| CCOC(=O)c1[nH]cc(C)c1-c1ccn(-c2ccccc2)c1 | False |
| c1ccc(-n2nc3ccc4nonc4c3n2)cc1 | False |

Identify the outcome logged in this assay for the compound shown: CCOC(=O)/C(=C\c1c[nH]c2ccccc12)P(=O)(OCC)OCC
False

Identify the outcome logged in this assay for the compound shown: c1ccc([C@H]2CN3CCSC3=N2)cc1 [LEVAMISOLE HYDROCHLORIDE]
False

Identify the outcome logged in this assay for the compound shown: COc1cc(/C=C2\NC(=O)N(/C=C3\C(=O)Oc4ccccc4C3=O)C2=O)ccc1O
False

Identify the outcome logged in this assay for the compound shown: NC(=O)c1ccc(Cl)c([N+](=O)[O-])c1
False

Identify the outcome logged in this assay for the compound shown: COC(=O)c1c/c(=N\NC(=O)CC(=O)Nc2ccccc2OC)c2ccccc2o1
False

Identify the outcome logged in this assay for the compound shown: O=C(CCN1CCCCC1)Nc1ccc2sc3ccccc3c(=O)c2n1
False

Identify the outcome logged in this assay for the compound shown: N#Cc1nc(C(F)(F)F)oc1N
False

Identify the outcome logged in this assay for the compound shown: COc1ccc2nc3cc(Cl)ccc3c(Sc3ccc(NC(C)=O)cc3)c2c1
False

Identify the outcome logged in this assay for the compound shown: CCOC(=O)C12OC(OCC)(CC1(OCC)OCC)C1(CC1)C2=O (stereo not drawn)
False

Identify the outcome logged in this assay for the compound shown: Oc1[nH]c(Nc2ccc(F)c(Cl)c2)nc2ncnc1-2
False

Identify the outcome logged in this assay for the compound shown: NS(=O)(=O)c1ccc(/N=N/c2nc3nc(O)nc(O)c3[nH]2)cc1
False

Identify the outcome logged in this assay for the compound shown: COc1ccc2c(c1)OCC1Cc3cc4c(cc3OC21)OCO4 (stereo not drawn)
False

Identify the outcome logged in this assay for the compound shown: CC1(C)N=C(N)N=C(N)N1c1ccc(CCCCc2ccc(Cl)cc2Cl)cc1
True

====

System: M19-MEL
assayDetails: NCI tumour cell line growth inhibition, 48 h
The source made the active and inactive calls. No stated cut-off is given here; in the data, active = GI50 up to about 1.1 µM and inactive = higher.
Output constraint: value belongs to active, inactive

# example entries with known answers
| compound | assignedCategory |
| --- | --- |
| COCC(O)Cn1ccnc1[N+](=O)[O-] (stereo unspecified) | inactive |
| COc1ccc(CCC2c3cc(OC)c(OC)cc3CCN2C)cc1OC (stereo unspecified) | inactive |
| COC(=O)C1=CC2OC1(C)C1(CC1)C2=O (stereo unspecified) | inactive |
| C=CCO/N=C(\OC(=O)c1ccc([N+](=O)[O-])cc1)c1ccccc1 | inactive |
| CCN(CC)C(=S)S [DITIOCARB SODIUM] | active |

# ---- query compound ----
Identify the outcome logged in this assay for the compound shown: COc1ccc2[nH]c3c(C)cc([N+](=O)[O-])c(C)c3c2c1
inactive

====

Test system: TK-10
assayDetails: NCI tumour cell line growth inhibition, 48 h
Active and inactive are the calls of the source. No stated cut-off is given here; in the data, active = GI50 up to about 1.1 µM and inactive = higher.
endpointName: GI50

As a guide, the following entries are already answered.
| compound | GI50 |
| --- | --- |
| NC(=O)C(=Cn1c(=S)[nH]c2ccc([N+](=O)[O-])cc21)C(N)=O | > 100 µM (inactive) |
| Clc1ccc(-c2nn3c(CCCCCCCCc4nnc5sc(-c6ccc(Cl)cc6)nn45)nnc3s2)cc1 | 23.4 µM (inactive) |
| Cc1cc(Cl)cc2c1NC(=O)C2(O)CC(=O)c1ccco1 (centres undefined) | > 100 µM (inactive) |

Give GI50 for each listed item.
1. COC(=O)C[C@H](CCSC)NC(=O)C[C@H](CCSC)NC(=O)C[C@H](CCSC)NC(=O)OC(C)(C)C
2. CC1CC[C@]2(C(=O)O)CCC3(COC(=O)/C=C\c4ccc(O)cc4)C(=CCC4[C@@]5(C)CC[C@H](O)C(C)(C)C5CC[C@]43C)[C@@H]2[C@H]1C (some centres undefined)
3. C[C@@H]1C[C@@H](O)[C@@]2(O)C13CC(=O)OC(C3)[C@@H](C)[C@@]2(C)CO (some centres undefined)
4. CCOC(=O)/C(=C\c1c[nH]c2ccccc12)P(=O)(OCC)OCC
5. c1ccc(C[P+]2(c3ccccc3)c3ccccc3-c3ccccc32)cc1

1. 19.1 µM (inactive)
2. 21.7 µM (inactive)
3. > 100 µM (inactive)
4. 42.6 µM (inactive)
5. > 100 µM (inactive)

====

System: M14
assayDetails: NCI tumour cell line growth inhibition, 48 h
Structures can show the parent of a compound that is named as a salt. Calls of active or inactive are those of the source. Cut-off read from the data, not from the text of the source: active = GI50 up to about 1.1 µM and inactive = higher.
endpointName: GI50

As a guide, the following entries are already answered.
| compound | testSystem | GI50 |
| --- | --- | --- |
| COC(=O)c1ccc(/C=C/C2=CC(=O)C=CC2=O)cc1 | M14 | 24.7 µM (inactive) |
| CCOc1ccccc1/N=N/C1C(=O)N(C(=O)CC(=O)Nc2ccccc2Cl)N=C1C (stereo not given) | M14 | > 100 µM (inactive) |
| CC1=NN(C(=O)c2ccc(Cl)cc2)C(=O)/C1=C/c1ccccc1O | M14 | > 100 µM (inactive) |
| CC(=O)Oc1c(C)c2c(c3ncccc13)OC(C)C2 (stereo not given) | M14 | 15.2 µM (inactive) |
| O=C(CCN1CCCCC1)Nc1ccc2sc3ccccc3c(=O)c2n1 | M14 | 13.6 µM (inactive) |

Give GI50 for each listed item.
1. c1ccc([C@H]2CN3CCSC3=N2)cc1 [LEVAMISOLE HYDROCHLORIDE]
2. Cn1nc2c(c1N)Cc1c(nn(C)c1N)-c1ccccc1-2

> 100 µM (inactive)
> 100 µM (inactive)

====

Consider the following compounds; for each one, report its GI50.
Tested on: MOLT-4
assayDetails: NCI tumour cell line growth inhibition, 48 h
Calls of active or inactive are those of the source. No stated cut-off is given here; in the data, active = GI50 up to about 1.1 µM and inactive = higher.

| compound | GI50 |
| --- | --- |
| COC(=O)CC1C[C@H](C#N)N(C(=O)c2ccccc2)C[C@@H]1CC[N+](=O)[O-] (stereo partly specified) | > 100 µM (inactive) |
| O=C(O)Cc1ccc(Oc2nc3ccccc3nc2-c2cccs2)cc1 | 50 µM (inactive) |
| CC1=NN(c2nc(N)nc(/C(C#N)=C/c3ccncc3)n2)C(C)(C)C1 | > 100 µM (inactive) |
| CCN(CC)CCN1C(=O)c2cccc3cc(N)cc(c23)C1=O | 3.46 µM (inactive) |

Give GI50 for each listed item.
1. CCOC(=O)c1ccc(N2C(=O)Cc3ccccc3C2=O)cc1
2. N#CC(C(=O)CCC(=O)C(C#N)c1ccccc1)c1ccccc1 (stereo unspecified)

1: > 100 µM (inactive); 2: > 100 µM (inactive)
